Assay: log P by HPLC on a reversed-phase column (C 18), EEC Directive 79/831 Annex V.A8
Type: physicochemical
Conditions: reversed-phase HPLC column (C 18), Table 2, compounds of formula (IIa); HPLC C 18, 40° C., 0.1% aqueous formic acid and acetonitrile
Recorded chromatographic logP by entry
Number only, please.

// known answers, use as guide
> print(dat)
                                   compound  measured.value
1             Clc1ccc(C2=CCCC2)c(CNC2CC2)c1            1.28
2           Clc1ccc(C2=CCCCCC2)c(CNC2CC2)c1            1.71
3                 C1=C(c2ccccc2CNC2CC2)CCC1            1.19
4  CC(NC1CC1)c1cc(F)ccc1C1=CCCC1 (stereo not shown)            1.56
5  CC(NC1CC1)c1ccccc1C1=CCCC1 (stereo not shown)            1.72
6                C1=C(c2ccccc2CNC2CC2)CCCC1            1.37

The compound identified as C1=C(c2ccccc2CNC2CC2)CCCCC1 registered its chromatographic logP at 1.45

The compound identified as Clc1ccc(C2=CCCCC2)c(CNC2CC2)c1 registered its chromatographic logP at 1.45

The compound identified as Clc1ccc(C2=CCCCC2)cc1CNC1CC1 registered its chromatographic logP at 1.45

The compound identified as Clc1ccc(C2=CCCC2)cc1CNC1CC1 registered its chromatographic logP at 1.39
